Item-by-item account of pKi
Molecular target: JNK3 (Homo sapiens, UniProt P53779)
Construct: One such construct encodes amino acid residues Ser40-Glu402 of JNK3α1 and is preceded by Met and Gly residues; Met-Gly dipeptide (initiation Met plus Gly added for the NcoI site) (N)
Sequence (P53779 40-402): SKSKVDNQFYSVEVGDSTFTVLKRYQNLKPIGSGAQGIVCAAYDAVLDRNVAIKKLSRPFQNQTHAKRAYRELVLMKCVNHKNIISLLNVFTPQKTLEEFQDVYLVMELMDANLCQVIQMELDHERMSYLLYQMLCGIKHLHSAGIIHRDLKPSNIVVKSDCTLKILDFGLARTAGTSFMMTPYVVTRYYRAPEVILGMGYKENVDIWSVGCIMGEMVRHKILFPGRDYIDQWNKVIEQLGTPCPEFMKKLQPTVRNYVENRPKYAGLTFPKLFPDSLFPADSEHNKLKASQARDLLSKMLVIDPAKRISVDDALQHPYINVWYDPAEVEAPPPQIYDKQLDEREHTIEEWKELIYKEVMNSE
Assay: JNK inhibition assay (spectrophotometric coupled-enzyme assay)
Details: activated JNK3 10 nM, 10 μM ATP, 30° C.; read-out: JNK3 Activity (Ki rating)
pKi: −log10 of the molar value.

| Molecular string | Quantity measured | Endpoint result |
| --- | --- | --- |
| COCn1c(-c2ccnc(Nc3ccc(F)cc3)n2)cnc1-c1ccccc1 | pKi | < 6.00 |
| COCn1c(-c2ccnc(Nc3cccc(Br)c3)n2)cnc1-c1ccccc1 | pKi | < 6.00 |
| Clc1cccc(Cl)c1Cc1ncc(-c2ccnc(Nc3cccc(OCc4ccccc4)c3)n2)[nH]1 | pKi | 6.00 to 7.00 |
| COc1cc(Nc2nccc(-c3cnc(-c4cccnc4)n3C)n2)cc(OC)c1 | pKi | 6.00 to 7.00 |
| Clc1cccc(Cl)c1Cc1ncc(-c2ccnc(Nc3ccccc3)n2)[nH]1 | pKi | 6.00 to 7.00 |

Note to self: pKi recorded for `COC(=O)c1cccc(Nc2nccc(-c3cnc(-c4cccnc4)n3C)n2)c1` was 6.00 to 7.00

* * *

Target: JNK3 (Homo sapiens, UniProt P53779)
Construct: One such construct encodes amino acid residues Ser40-Glu402 of JNK3α1 and is preceded by Met and Gly residues; Met-Gly dipeptide (initiation Met plus Gly added for the NcoI site) (N)
Test: JNK inhibition assay (spectrophotometric coupled-enzyme assay)
Settings: activated JNK3 10 nM, 10 μM ATP, 30° C.; read-out: JNK3 Activity (Ki rating)
pKi: −log10 of the molar value.
Item-by-item account of pKi

// solved cases for pKi follow
| Molecular string | Assay target | pKi |
| --- | --- | --- |
| Fc1ccc(Nc2nccc(-c3cnc(-c4ccccc4)o3)n2)cc1 | JNK3 (Homo sapiens, UniProt P53779) | 6.00 to 7.00 |
| Clc1ccc(Nc2nccc(-c3cnc(Cc4c(Cl)cccc4Cl)[nH]3)n2)cn1 | JNK3 (Homo sapiens, UniProt P53779) | 6.00 to 7.00 |

Shifting focus to the compound that follows.
Note to self: pKi recorded for `COc1cccc(Nc2nccc(-c3cnc(-c4cccnc4)n3C)n2)c1` was 6.00 to 7.00
